molecular target: T1, human IL-17A (human, UniProt Q16552 24-155); assay: SPR (Biacore T200), capture setup: biotinylated IL-17A captured, scFv as analyte
T1 construct: Recombinant human IL-17A (Peprotech Cat. No. 200-17), disulfide-linked homodimer from E. coli; Biotinylated or RPE-labelled in some assays; also called hIL-17A; IL-17A-RPE (labelled)
parameter: Kd (nM)
Reply with just the number (in nM).

A2 (humanized anti-IL-17A scFv, STR graft of 27-07-G02) (scFv, VL-linker-VH; also called 27-07-G02-sc02) scFv: DIQMTQSPSSLSASVGDRVTITCQASQTINYWLAWYQQKPGKPPKLLIYRASTLASGVPSRFSGSGSGTDFTLTISSLQPEDFATYYCQNYYYSTSRSYGFGGGTKLTVLGGGGGSGGGGSGGGGSGGGGSEVQLVESGGGLVKPEGSLRLSCAASGFSFSSDYWMCWVRQAPGKGLEWIACIYAGDVDDTDYASWARGRFTISRDNSKNTVYLQMNSLRAEDTAVYYCARVDGFDITYFDLWGQGTLVTVSS ... 3.07
A1 (humanized anti-IL-17A scFv, CDR graft of 27-07-G02) (scFv, VL-linker-VH; also called 27-07-G02-sc01; 27_07_G02_sc01) scFv: DIQMTQSPSSLSASVGDRVTITCQASQTINYWLAWYQQKPGKAPKLLIYRASTLASGVPSRFSGSGSGTDFTLTISSLQPEDFATYYCQNYYYSTSRSYGFGGGTKLTVLGGGGGSGGGGSGGGGSGGGGSEVQLVESGGGLVQPGGSLRLSCAASGFSFSSDYWMCWVRQAPGKGLEWIGCIYAGDVDDTDYASWARGRFTISRDNSKNTVYLQMNSLRAEDTAVYYCARVDGFDITYFDLWGQGTLVTVSS ... 0.247
PRO592 (humanized anti-IL-17A scFv, STR graft of 27-31-C04) (scFv, VL-linker-VH; also called 27-31-C04-sc02; 27_31_C04_sc02) scFv: DIQMTQSPSSLSASVGDRVTITCQASESIYRYLSWYQQKPGKAPKLLIYLASTLTSGVPSRFSGSGSGTDFTLTISSLQPEDFATYYCQSNFGTASTTYYNTFGGGTKLTVLGGGGGSGGGGSGGGGSGGGGSEVQLVESGGGLVQPGGSLTLSCAASGFSFSGFYYMCWVRQAPGKGLEWIGCIDTGDGTTYYASWAKGRFTISRDNSKNTVYLQMNSLRAEDTAVYYCARDAAYGGYAYPAHGMDLWGPGTLVTVSS ... 0.367

# next binder below
input: Report Kd for PRO571 (humanized anti-IL-17A scFv, CDR graft of 27-31-C04) (scFv, VL-linker-VH; also called 27-31-C04-sc01; 27_31_C04_sc01) scFv: DIQMTQSPSSLSASVGDRVTITCQASESIYRYLSWYQQKPGKAPKLLIYLASTLTSGVPSRFSGSGSGTDFTLTISSLQPEDFATYYCQSNFGTASTTYYNTFGGGTKLTVLGGGGGSGGGGSGGGGSGGGGSEVQLVESGGGLVQPGGSLRLSCAASGFSFSGFYYMCWVRQAPGKGLEWIGCIDTGDGTTYYASWAKGRFTISRDNSKNTVYLQMNSLRAEDTAVYYCARDAAYGGYAYPAHGMDLWGQGTLVTVSS please.
output: 0.119

Sourced from patent US20220127350A1
